meta.source: ChEMBL document CHEMBL1141654

The reader will find reported inhibition at 3 µM values listed item by item below.
System: Hepatocyte
experiment: Inhibition of D-galactosamine/TNFalpha-induced cell death in ddY mouse hepatocytes at 3 uM after 20 hrs by MTT assay
Type: functional
Dear colleague, please return just the value in %, with no unit written.

Please review the entries below; each comes with its answer.
O=C(/C=C/CCCC/C=C/c1ccc2c(c1)OCO2)N1CCCCC1 | 17
O=C(/C=C/C=C/c1ccc2c(c1)OCO2)N1CCCCC1 | 23

Inquiry: Suppose we examine the compound CC(C)CNC(=O)/C=C/C=C/CC/C=C/c1ccc2c(c1)OCO2 [RETROFRACTAMIDE A] ; what inhibition at 3 µM value has been reported?
Reply text: 32

Inquiry: Suppose we examine the compound COC(=O)/C=C/C=C/c1ccc2c(c1)OCO2 [METHYL PIPERATE] ; what inhibition at 3 µM value has been reported?
Reply text: 18

Inquiry: Suppose we examine the compound CC(C)CNC(=O)/C=C/CCCC/C=C/c1ccc2c(c1)OCO2 [RETROFRACTAMIDE C] ; what inhibition at 3 µM value has been reported?
Reply text: 51

* * *

The reader will find reported inhibition at 3 µM values listed item by item below.
Test system: Hepatocyte
experiment: Inhibition of D-galactosamine/TNFalpha-induced cell death in ddY mouse hepatocytes at 3 uM after 20 hrs by MTT assay
Format: functional
Dear colleague, please return just the value in %, with no unit written.

Please review the entries below; each comes with its answer.
O=C(/C=C/C=C/CCCCCC/C=C/c1ccc2c(c1)OCO2)N1CCCCC1 [PIPERCHABAMIDE C] | 42
O=C1C=CCCN1C(=O)CCc1ccccc1 [PIPERCHABAMIDE A] | 29
O=C(CCCCCC/C=C/c1ccc2c(c1)OCO2)N1CCCCC1 [PIPERROLEIN B] | 29
CCC(C)CNC(=O)/C=C/C=C/c1ccc2c(c1)OCO2 (stereo not drawn) [PIPERCHABAMIDE E] | 34

# evaluate next
Inquiry: Tell me reported inhibition at 3 µM for CC(C)CNC(=O)/C=C/CCc1ccc2c(c1)OCO2 [4,5-DIHYDROPIPERLONGUMININE] , tested with Hepatocyte.
Reply text: 43

* * *

Test system: Hepatocyte
experiment: Inhibition of D-galactosamine/TNFalpha-induced cell death in ddY mouse hepatocytes at 3 uM after 20 hrs by MTT assay
Assay type: functional
measured_attribute: inhibition at 3 µM (%)
Dear colleague, please return just the value in %, with no unit written.

Please review the entries below; each comes with its answer.
CCCCC/C=C/C=C/C(=O)NCC(C)C [PELLITORIN] | 19
CC(C)CNC(=O)/C=C/C=C/CCCCCCCC/C=C/c1ccc2c(c1)OCO2 [BRACHYSTAMIDE B] | 22
O=C(/C=C/C=C/CCCC/C=C/c1ccc2c(c1)OCO2)N1CCCCC1 [PIPERUNDECALIDIENE] | 40
CC(C)CNC(=O)/C=C/CCCCCC/C=C/c1ccc2c(c1)OCO2 [PIPERCHABAMIDE D] | 57
CC(C)CNC(=O)/C=C/C=C/CCCCCC/C=C/c1ccc2c(c1)OCO2 [GUINEENSINE] | 26

Inquiry: Suppose we examine the molecule CCCCCCCCCCCCC/C=C/C=C/C(=O)NCC(C)C ; what inhibition at 3 µM value has been reported?
Reply text: 37

Inquiry: Suppose we examine the molecule CCCCC/C=C\CCCCCCCC/C=C/C=C/C(=O)NCC(C)C ; what inhibition at 3 µM value has been reported?
Reply text: 3

Inquiry: Suppose we examine the molecule CC(C)CNC(=O)/C=C/C=C/c1ccc2c(c1)OCO2 [PIPERLONGUMININE] ; what inhibition at 3 µM value has been reported?
Reply text: 50
